Heads up, these molecules all have E values measured for Muscarinic acetylcholine receptor M1 (Homo sapiens).
Answer as a number with no unit attached.

### Prompt // lookup E for O=C(CCC1=[N+]2C(=Cc3ccc(-c4cccs4)n3[B-]2(F)F)C=C1)NCCOCCOCCN1CCN(CC(=O)N2c3ccccc3C(=O)Nc3cccnc32)CC1
### Response 0.6

### Prompt // lookup E for O=C(CCCCCNC(=O)CCC1=[N+]2C(=Cc3ccc(-c4cccs4)n3[B-]2(F)F)C=C1)NCCCCCC(=O)NCCCCN1CCN(CC(=O)N2c3ccccc3C(=O)Nc3cccnc32)CC1
### Response 0.51

### Prompt // lookup E for O=C(CCC1=[N+]2C(=Cc3ccc(-c4cccs4)n3[B-]2(F)F)C=C1)NCCCCCCN1CCN(CC(=O)N2c3ccccc3C(=O)Nc3cccnc32)CC1
### Response 0.63

### Prompt // lookup E for CCN1/C(=C/C=C/C2N(CCCCCC(=O)NCCOCCOCCN3CCN(CC(=O)N4c5ccccc5C(=O)Nc5cccnc54)CC3)c3ccc(S(=O)(=O)O)cc3C2(C)C)C(C)(C)c2cc(S(=O)(=O)O)ccc21 (stereo unspecified)
### Response 0.6

### Prompt // lookup E for CCN(CC)c1ccc2c(-c3ccc(S(=O)(=O)NCCCCCC(=O)NCCOCCOCCN4CCN(CC(=O)N5c6ccccc6C(=O)Nc6cccnc65)CC4)cc3S(=O)(=O)[O-])c3ccc(=[N+](CC)CC)cc-3oc2c1
### Response 0.68

### Prompt // lookup E for O=C(CCC1=[N+]2C(=Cc3ccc(-c4cccs4)n3[B-]2(F)F)C=C1)NCCOCCOCCOCCOCCOCCOCCN1CCN(CC(=O)N2c3ccccc3C(=O)Nc3cccnc32)CC1
### Response 0.53

----------
Heads up, these compounds all have pKi values measured for Muscarinic acetylcholine receptor M1 (Homo sapiens, UniProt P11229).
// returns pKi (minus log10 of molar concentration), number only

### Prompt pKi of CCN1/C(=C/C=C/C2N(CCCCCC(=O)NCCOCCOCCN3CCN(CC(=O)N4c5ccccc5C(=O)Nc5cccnc54)CC3)c3ccc(S(=O)(=O)O)cc3C2(C)C)C(C)(C)c2cc(S(=O)(=O)O)ccc21 (centres undefined) on Muscarinic acetylcholine receptor M1 (Homo sapiens, UniProt P11229)?
### Response 6.87

### Prompt pKi of O=C(CCC1=[N+]2C(=Cc3ccc(-c4cccs4)n3[B-]2(F)F)C=C1)NCCCCCCN1CCN(CC(=O)N2c3ccccc3C(=O)Nc3cccnc32)CC1 on Muscarinic acetylcholine receptor M1 (Homo sapiens, UniProt P11229)?
### Response 8.06
